For each record, write down the corresponding MFI.
Target: T1, human TREM2 expressed on cells (human, UniProt Q9NZC2 19-230)
T1 construct: BW5147.G.1.4 cells stably expressing human TREM2 together with Dap12, or endogenous TREM2 of primary human myeloid cells; also called huT2 BW; hTREM2 expressing cell line
T1 sequence: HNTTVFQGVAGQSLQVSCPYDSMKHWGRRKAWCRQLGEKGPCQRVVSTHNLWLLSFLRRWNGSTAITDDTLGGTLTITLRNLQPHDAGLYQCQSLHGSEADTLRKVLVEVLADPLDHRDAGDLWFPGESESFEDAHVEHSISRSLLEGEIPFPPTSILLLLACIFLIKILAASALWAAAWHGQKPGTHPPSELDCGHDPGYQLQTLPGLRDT
Assay: FACS, human DCs; also: test concentration or dose not given here
Lab book: enter the figure in MFI, no units written.

I am curious: what MFI value has been reported for AL2p-46 (antibody, V domains shown, Fab and IgG formats under one id) VH: QVQLVQSGAEVKKPGSSVKVSCKASGYAFSSDWMNWVRQAPGQGLEWMGRIYPGEGDTNYARKFQGRVTITADESTSTAYMELSSLRSEDTAVYYCARLLRNKPGESYAMDYWGQGTLVTVSS VL: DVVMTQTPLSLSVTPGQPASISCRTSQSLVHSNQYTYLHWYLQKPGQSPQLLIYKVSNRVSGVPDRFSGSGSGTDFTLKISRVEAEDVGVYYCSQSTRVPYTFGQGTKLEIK ?
187

How about this binder: AL2p-49 (antibody, V domains shown, Fab and IgG formats under one id) VH: EVQLVQSGAEVKKPGSSVKVSCKASGYAFSSDWMNWVRQAPGQGLEWMGRIYPGEGDTNYARKFHGRVTITADESTSTAYMELSSLRSEDTAVYYCARLLRNKPGESYAMDYWGQGTLVTVSS VL: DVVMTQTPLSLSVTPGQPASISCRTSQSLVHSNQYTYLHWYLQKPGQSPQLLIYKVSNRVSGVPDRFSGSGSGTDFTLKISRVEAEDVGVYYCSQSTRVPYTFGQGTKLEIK
413

How about this binder: AL2p-47 (antibody, V domains shown, Fab and IgG formats under one id (explicit huIgG1 is m97); also called AL2-47) VH: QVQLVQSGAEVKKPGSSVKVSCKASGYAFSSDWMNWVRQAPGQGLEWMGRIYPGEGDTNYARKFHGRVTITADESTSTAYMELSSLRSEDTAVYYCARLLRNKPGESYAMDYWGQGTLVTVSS VL: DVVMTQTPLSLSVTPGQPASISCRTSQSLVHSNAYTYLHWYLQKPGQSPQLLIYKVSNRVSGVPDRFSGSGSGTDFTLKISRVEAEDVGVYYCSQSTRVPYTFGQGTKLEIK
372

# credit: patent US20200317776A1
